molecular target: UniProt:P21554; assay: CB1 activated Gαq16-coupled intracellular calcium mobilization assay in CHO-K1 cells; type: cell-based; details: apparent affinity (Ke)
Sequence (P21554 whole entry): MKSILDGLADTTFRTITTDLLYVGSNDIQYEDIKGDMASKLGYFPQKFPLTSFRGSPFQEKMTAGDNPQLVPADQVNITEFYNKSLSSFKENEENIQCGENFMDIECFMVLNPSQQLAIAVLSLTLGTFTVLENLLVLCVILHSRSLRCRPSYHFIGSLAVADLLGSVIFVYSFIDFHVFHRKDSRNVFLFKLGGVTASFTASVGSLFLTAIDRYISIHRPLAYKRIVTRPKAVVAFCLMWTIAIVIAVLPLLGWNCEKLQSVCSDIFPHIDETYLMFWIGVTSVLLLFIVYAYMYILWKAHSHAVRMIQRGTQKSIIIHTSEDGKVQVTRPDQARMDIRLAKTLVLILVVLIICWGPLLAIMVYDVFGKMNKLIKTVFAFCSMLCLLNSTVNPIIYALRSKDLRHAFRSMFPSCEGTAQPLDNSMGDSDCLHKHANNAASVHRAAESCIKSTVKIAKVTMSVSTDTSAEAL
Endpoint: Ke (nM) at CB1

Observe how each entry below is paired with its result.
# Structure Smiles, Ke (nM) at CB1
data = [
    ("CN(C)CC(=O)NC1CCN(c2ncnc3c2nc(-c2ccccc2Cl)n3-c2ccc(Cl)cc2)CC1", "140 nM"),
    ("CC(C)(C)OC(=O)NC1(c2ccccc2)CCN(c2ncnc3c2nc(-c2ccccc2Cl)n3-c2ccc(Cl)cc2)CC1", "3.93 nM"),
    ("O=C(CCN1CCCCC1)NC1CCN(c2ncnc3c2nc(-c2ccccc2Cl)n3-c2ccc(Cl)cc2)CC1", "789 nM"),
    ("O=C(NC1CCCCC1)NC1(c2ccccc2)CCN(c2ncnc3c2nc(-c2ccccc2Cl)n3-c2ccc(Cl)cc2)CC1", "199 nM"),
    ("CCNC(=O)NC1(c2ccccc2)CCN(c2ncnc3c2nc(-c2ccccc2Cl)n3-c2ccc(Cl)cc2)CC1", "443 nM"),
]

Now for a further molecule.
Ask | // lookup Ke (nM) at CB1 | system=UniProt:P21554 | key= "CCCNC(=O)NC1CCN(c2ncnc3c2nc(-c2ccccc2Cl)n3-c2ccc(Cl)cc2)CC1"
Reply | 132 nM
